# TARGET_DESC: cynomolgus LAG-3 ECD/Fc fusion protein (cynomolgus monkey)
# Sequence (chain, as listed by the source limits assumed, form in doubt): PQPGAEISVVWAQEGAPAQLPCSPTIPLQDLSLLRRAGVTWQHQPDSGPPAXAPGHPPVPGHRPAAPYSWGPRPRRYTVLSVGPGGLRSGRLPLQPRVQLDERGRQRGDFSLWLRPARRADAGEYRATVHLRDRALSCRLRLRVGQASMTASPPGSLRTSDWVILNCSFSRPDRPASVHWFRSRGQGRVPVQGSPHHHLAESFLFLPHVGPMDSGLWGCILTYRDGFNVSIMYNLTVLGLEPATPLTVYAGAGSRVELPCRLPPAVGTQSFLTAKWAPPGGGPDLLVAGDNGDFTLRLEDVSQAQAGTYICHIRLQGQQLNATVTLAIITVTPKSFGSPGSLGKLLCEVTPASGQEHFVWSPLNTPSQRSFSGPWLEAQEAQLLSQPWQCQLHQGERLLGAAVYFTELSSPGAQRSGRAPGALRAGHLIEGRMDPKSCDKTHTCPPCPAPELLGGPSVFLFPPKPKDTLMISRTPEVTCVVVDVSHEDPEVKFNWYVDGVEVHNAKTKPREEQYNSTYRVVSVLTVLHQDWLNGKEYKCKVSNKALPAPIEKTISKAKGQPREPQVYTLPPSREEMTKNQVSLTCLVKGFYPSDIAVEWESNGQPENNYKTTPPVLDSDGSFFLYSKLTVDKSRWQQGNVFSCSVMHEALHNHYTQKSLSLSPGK
# EXPERIMENT: ELISA, coated cynoLAG-3 ECD/Fc
READOUT_KIND: pEC50
Reminder that pEC50 is minus the log10 of a molar concentration.

Query mAb747 (antibody, V domains shown) VH: EVQLQQSGAELVRPGASVKLSCTASDFNIKDDYMHWVKQRPEQGLDWIGWIVPENGNTEYASKFQGKATITADTSSNTAYLQLSSLTSEDTAVYYCTVYGDYWGQGTTLTVSS VL: DIQMTQSPSSLSASLGERVSLNCRASQEISGYLSWLQQKPDGTIKRLIYAASTLDSGVPKRFSGSRSGSDYSLTISSLESEDFAAYYCLQYASYPLTFGAGTKLELK yields pEC50 of 9.47
